# System: SNB-75 CNS
# EXPERIMENT: NCI tumour cell line growth inhibition, 48 h
Provide the reported TGI of each item.
Numbers only, in µM.

Consider the reported TGI for these compounds:
compound="Cc1cnc2c(c1)C(=O)C1=C(OC(C)(C)CC1O)C2=O (configuration not stated)" units_symbol=µM test_value=28.5
compound=NC(=O)N/N=C(/Cc1nc2ccc(C(=O)c3ccccc3)cc2[nH]c1=O)C(=O)Nc1ccc(C(F)(F)F)cc1[N+](=O)[O-] units_symbol=µM test_value=97.3

Hi team, please reply with TGI for each item in this list.
1. CC(C)(C)c1cc(OCc2nnc3sc(=S)[nH]n23)c(Cl)cc1OCc1nnc2sc(=S)[nH]n12
2. N#Cc1c(N)nc(N)nc1N[C@H](c1nc2c(F)ccc(Cl)c2c(=O)n1-c1cccnc1)C1CC1
3. CCCCNC(=O)Oc1ccc(/C(=C(/C)Cc2ccc(OC)cc2)c2ccc(OCCN3CCCC3)cc2)cc1
4. CCOC(=O)c1c(C)nc2c(c1N)CC(=O)N2CCc1ccccc1

## Output
1: 92; 2: 6.9; 3: 4.5; 4: 18.1

Hi team, please reply with TGI for each item in this list.
1. C/C(=N\NC(=S)N1CC2CCC(CC2)C1)c1cccc(C)n1
2. CCCCc1n(Cc2ccc3ccccc3c2)cc[n+]1Cc1ccc2ccccc2c1
3. Cc1ccc(/C=C2\CCCC(CN(C)C)C2=O)cc1 (configuration not stated)
4. C=C(C)C(O)C(O)C[C@@H](C)C1CC[C@]23C[C@]12CCC1[C@@]2(C)CCC(OC(C)=O)C(C)(C)C2CC(OC2OC(CO)C(O)C(O)C2O)[C@]13C (some centres not stated)

## Output
[13.1, 2.4, 20.3, 43]

Hi team, please reply with TGI for each item in this list.
1. N#Cc1c(Cl)nc2ccccc2c1N=[N+]=[N-]
2. N=C(N)c1ccc(NCCOCCNc2ccc(C(=N)N)cc2)cc1
3. NCCOc1ccccc1/C=C1\c2ccccc2-c2ccc([N+](=O)[O-])cc21
4. C[C@]12CC[C@H]3[C@@H](C[C@@H]4SC(Nc5ccccc5)=N[C@@]45CC(O)CC[C@]35C)[C@@H]1CCC2O (some centres not stated)
5. CC1(C)C(=O)/C=C\C(=O)C(C)(C)C(=O)/C=C\C(=O)C(C)(C)C(=O)/C=C\C(=O)C(C)(C)C(=O)/C=C\C1=O
6. Cc1[nH]nc2c1N=C(c1ccccc1F)c1cc(C(N)=O)ccc1N2

## Output
1. 21.9
2. 81.3
3. 2.55
4. 3.05
5. 99.4
6. 1.69

###

# Tested on: OVCAR-3 ovarian
# EXPERIMENT: NCI tumour cell line growth inhibition, 48 h
MEASUREMENT LABEL: TGI

compound_structure=N#Cc1c(O)cc(=O)n2c1[nH]c1ccccc12 test_value="> 100 µM"
compound_structure=Cc1cc2nc3cc(C)c(N)cc3[n+](-c3ccccc3)c2cc1N test_value="> 95.7 µM"

# evaluate next
## Input Find the recorded TGI belonging to `O=S1(=O)CCCS(=O)(=O)C(c2ccccc2)=C1c1ccccc1` and report it.
## Output > 100 µM

###

# System: DMS 273 small cell lung
# EXPERIMENT: NCI tumour cell line growth inhibition, 48 h
Provide the reported TGI of each item.

compound="CC1C[C@]2(C[C@@H](C)C(=O)O2)O[C@@H]2CC3(C)[C@@H]4CCC5C(C)(C)OC(=O)C[C@H]6OO[C@]4(CC[C@]3(C)C12)CC56O (stereo partly drawn)" test_value="> 100 µM"
compound="CC1(C)OCC([C@H]2CC23SCCCS3)O1 (stereo partly drawn)" test_value="> 100 µM"

# evaluate next
## Input Find the recorded TGI belonging to `Cc1ccc(C(O)(c2ccc(C)cc2)c2ccccn2)cc1` and report it.
## Output > 100 µM
